Recorded IC50 for compounds tested on Melanocyte-stimulating hormone receptor (Homo sapiens), drawn from a number of studies.
Sequence (Q01726 whole entry): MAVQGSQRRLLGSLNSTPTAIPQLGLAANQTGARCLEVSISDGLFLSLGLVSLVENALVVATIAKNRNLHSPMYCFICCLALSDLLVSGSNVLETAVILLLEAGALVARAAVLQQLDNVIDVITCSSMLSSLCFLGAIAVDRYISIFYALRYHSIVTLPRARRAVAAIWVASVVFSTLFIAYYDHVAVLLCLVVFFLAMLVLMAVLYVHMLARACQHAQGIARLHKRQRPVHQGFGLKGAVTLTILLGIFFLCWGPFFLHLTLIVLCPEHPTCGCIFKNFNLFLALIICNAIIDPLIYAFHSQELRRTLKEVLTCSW
Hi! Just check whether IC50 is below 300 nM. Below gives true (1), equal or above gives false (0).

Example cases with answers are listed next.
compound=CCCC(=O)C1(c2ccccc2)CCN(C(=O)[C@@H](Cc2ccc(OC)cc2)NC(=O)[C@@H](Cc2c[nH]cn2)NC(C)=O)CC1 assay_target="Melanocyte-stimulating hormone receptor (Homo sapiens)" class_label="true (1)"
compound="CCCC[C@H](NC(C)=O)C(=O)N[C@H]1CC(=O)NCCCC[C@@H](C(N)=O)NC(=O)[C@H](C)NC(=O)C(Cc2c[nH]c3ccccc23)NC(=O)[C@H](CCCN=C(N)N)NC(=O)[C@@H](Cc2ccccc2)NC(=O)[C@H](Cc2c[nH]cn2)NC1=O (single isomer, unassigned)" assay_target="Melanocyte-stimulating hormone receptor (Homo sapiens)" class_label="true (1)"
compound=CC(=O)N[C@H](Cc1ccccc1)C(=O)N[C@@H](CCCN=C(N)N)C(=O)N[C@@H](Cc1c[nH]c2ccccc12)C(N)=O assay_target="Melanocyte-stimulating hormone receptor (Homo sapiens)" class_label="false (0)"

Exam item: Bench note: check whether CCCC[C@H](NC(C)=O)C(=O)N[C@@H]1CC(=O)NCCCC[C@@H](C(N)=O)NC(=O)[C@H](C)NC(=O)[C@@H](Cc2c[nH]c3ccccc23)NC(=O)[C@H](CCCNC(=N)N)NC(=O)[C@H](Cc2ccccc2)NC(=O)[C@H](Cc2cnc[nH]2)NC1=O shows IC50 below 300 nM
Marked response: true (1)
